B1: TRIM29 (parent)
chain: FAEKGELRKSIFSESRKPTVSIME

- Variants of: B1
- ASSAY_PROCEDURE: protein stability index of a GFP-peptide fusion (GPS, HEK-293T) (PSI 1-6); higher = more stable;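 also: lentivirally expressed fusions sorted by FACS into six bins by GFP to DsRed ratio, PSI derived from sequencing read proportions per bin multiplied by bin number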
- MEASUREMENT_PARAMETERS: c terminus: a fixed tail appended
I'd appreciate it if you could supply protein stability index values for the items below.
Provide a numeric answer; units are not to be included.

Reported protein stability index, variant S13Q : ____
1.75

Likewise for R8V ?
2.74

Likewise for S21I ?
3.09

Likewise for T19E ?
1.8

Likewise for K9M ?
2.02

Likewise for E6M ?
1.78

Likewise for R8A ?
3.85

Likewise for M23L ?
1.71

Likewise for P18I ?
2.06

Likewise for E24Y ?
2.54

Likewise for M23A ?
1.47

Likewise for R8W ?
2.85

Likewise for L7F ?
2.21

Likewise for I11G ?
3.92

Likewise for S10K ?
2.17

Likewise for K17C ?
1.28

Likewise for A2T ?
2.36

Likewise for V20I ?
2.12

Likewise for G5Q ?
2.02

Likewise for E14G ?
1.78

Likewise for V20Q ?
2.2

Likewise for F12E ?
3.84
